target: KRAS G13D (Homo sapiens, UniProt P01116+P62937, G13D); experiment: Ras-Raf disruption / FRET / MOA assay (BRAF RBD); type: biochemical; conditions: Ras-Raf disruption, with Cyclophilin A; read-out: KRAS G13D FRET data IC50
Sequence (P01116 1-169 isoform P01116-2 G13D limits assumed): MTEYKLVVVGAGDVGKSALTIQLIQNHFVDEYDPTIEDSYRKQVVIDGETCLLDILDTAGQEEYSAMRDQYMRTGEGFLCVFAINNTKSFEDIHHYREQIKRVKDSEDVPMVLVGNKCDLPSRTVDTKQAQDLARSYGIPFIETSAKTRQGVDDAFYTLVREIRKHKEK
Sequence (P62937 whole entry): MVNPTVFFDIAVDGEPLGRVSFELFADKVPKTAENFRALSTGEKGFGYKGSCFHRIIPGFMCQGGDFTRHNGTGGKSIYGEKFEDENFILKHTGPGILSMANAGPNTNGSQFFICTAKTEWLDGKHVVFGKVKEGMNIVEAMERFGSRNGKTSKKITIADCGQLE
pIC50: −log10 of the molar value.
pIC50: recorded values

Compound: CCn1c(-c2cccnc2[C@H](C)OC)c2c3cc(ccc31)-c1cc(O)cc(c1)C[C@H](NC(=O)[C@H](C(C)C)N(C)C(=O)[C@@H]1CCN(C(=O)[C@H]3CN3)C1)C(=O)N1CCC[C@H](N1)C(=O)OCC(C)(C)C2 (atropisomer, axis not shown) [Example 186]
pIC50: 7.00 to 8.00

Compound: CCn1c(-c2cnccc2COC)c2c3cc(ccc31)-c1cccc(c1)C[C@H](NC(=O)[C@H](C(C)C)N(C)C(=O)CC(C)(C)N=C=Nc1ccc(OC)cc1)C(=O)N1CCC[C@H](N1)C(=O)OCC(C)(C)C2 [64 A and B]
pIC50: < 5.00

Compound: CCn1c(-c2cccnc2[C@H](C)OC)c2c3cc(ccc31)-c1cc(O)cc(c1)C[C@H](NC(=O)[C@H](C(C)C)N(C)C(=O)[C@H]1CCN(C(=O)[C@H]3CN3)[C@H]1C)C(=O)N1CCC[C@H](N1)C(=O)OCC(C)(C)C2 (atropisomer, axis not shown) [Example 206]
pIC50: 6.00 to 7.00

Compound: CCn1c(-c2cccnc2[C@H](C)OC)c2c3cc(ccc31)-c1cc(O)cc(c1)C[C@H](NC(=O)[C@H](C(C)C)N(C)C(=O)[C@H]1CCN(S(=O)(=O)[C@@H]3CN3C)C1)C(=O)N1CCC[C@H](N1)C(=O)OCC(C)(C)C2 (single isomer, unassigned) [Example 56]
pIC50: 6.00 to 7.00

Compound: CCn1c(-c2cccnc2[C@H](C)OC)c2c3cc(ccc31)-c1cc(O)cc(c1)C[C@H](NC(=O)[C@H](C(C)C)N(C)C(=O)N1CCN(C(=O)[C@H]3CN3)CC1)C(=O)N1CCC[C@H](N1)C(=O)OCC(C)(C)C2 [Example 177]
pIC50: 7.00 to 8.00

Compound: CCn1c(-c2cccnc2[C@H](C)OC)c2c3cc(ccc31)-c1cc(O)cc(c1)C[C@H](NC(=O)[C@H](C(C)C)N(C)C(=O)C1CN(S(=O)(=O)[C@@H]3CN3C)C1)C(=O)N1CCC[C@H](N1)C(=O)OCC(C)(C)C2 (single isomer, unassigned) [Example 118]
pIC50: 6.00 to 7.00

Compound: CCn1c(-c2cnccc2COC)c2c3cc(ccc31)-c1cccc(c1)C[C@H](NC(=O)[C@H](C(C)C)N(C)C(=O)CCN=C=NCc1ccc(OC)cc1OC)C(=O)N1CCC[C@H](N1)C(=O)OCC(C)(C)C2 [61 A and B]
pIC50: < 5.00

Compound: CCn1c(-c2cccnc2[C@H](C)OC)c2c3cc(ccc31)-c1csc(n1)C[C@H](NC(=O)[C@H](C(C)C)N(C)C(=O)N1CCN(C(=O)[C@H]3CN3)[C@@H](C)C1)C(=O)N1CCC[C@H](N1)C(=O)OCC(C)(C)C2 [Example 297]
pIC50: 6.00 to 7.00

----------
system: Capan-1 (K-Ras G12V); test: CellTiter-Glo cell viability assay, 5-day treatment; assay type: cell-based; details: Homo sapiens, CAPAN-1, 120 h, 5-day treatment; read-out: Capan-1 Cell Viability assay data (K-Ras G12V, IC50)

Compound: CCn1c(-c2cccnc2[C@H](C)OC)c2c3cc(ccc31)-c1csc(n1)C[C@H](NC(=O)C1(F)COC1)C(=O)N1CCC[C@H](N1)C(=O)OCC(C)(C)C2 [Example A320]
System: Capan-1 (K-Ras G12V)
IC50: 100 to 1000 nM

Compound: CCn1c(-c2cccnc2[C@H](C)OC)c2c3cc(ccc31)-c1csc(n1)C[C@H](NC(=O)[C@H]1CCCO1)C(=O)N1CCC[C@H](N1)C(=O)OCC(C)(C)C2 (atropisomer, axis not shown) [Example A315]
System: Capan-1 (K-Ras G12V)
IC50: 100 to 1000 nM

Compound: CCn1c(-c2cc(N3CCN(C)CC3)cnc2[C@H](C)OC)c2c3cc(ccc31)-c1csc(n1)C[C@H](NC(=O)[C@H](C(C)C)N(C)C(=O)[C@H]1CCNC1=O)C(=O)N1CCC[C@H](N1)C(=O)OCC(C)(C)C2 (single isomer, unassigned) [Example A449]
System: Capan-1 (K-Ras G12V)
IC50: 100 to 1000 nM

Compound: CCn1c(-c2cccnc2[C@H](C)OC)c2c3cc(ccc31)-c1cc(O)cc(c1)C[C@H](NC(=O)[C@H](C(C)C)N(C)C(=O)[C@H]1CCN(C(=O)[C@@]3(C)CCCN3)C1)C(=O)N1CCC[C@H](N1)C(=O)OCC(C)(C)C2 [Example A135]
System: Capan-1 (K-Ras G12V)
IC50: 1000 to 10000 nM

Compound: CCn1c(-c2cc(N3CCN(C)CC3)cnc2[C@H](C)OC)c2c3cc(ccc31)-c1csc(n1)C[C@H](NC(=O)[C@H](C1CCCC1)N(C)C(=O)N1CCC1)C(=O)N1CCC[C@H](N1)C(=O)OCC(C)(C)C2 (atropisomer, axis not shown) [Example A529]
System: Capan-1 (K-Ras G12V)
IC50: < 10 nM

Compound: CCn1c(-c2cccnc2[C@H](C)OC)c2c3cc(ccc31)-c1csc(n1)C[C@H](NC(=O)[C@H](C(C)C)N(C)C(=O)OC)C(=O)N1CCC[C@H](N1)C(=O)OCC(C)(C)C2 [Example A138]
System: Capan-1 (K-Ras G12V)
IC50: 10 to 100 nM

Compound: CCn1c(-c2cccnc2[C@H](C)OC)c2c3cc(ccc31)-c1cc(O)cc(c1)C[C@H](NS(=O)(=O)CC1OCCC13CNC3)C(=O)N1CCC[C@H](N1)C(=O)OCC(C)(C)C2 (mixture of isomers) [Example A187]
System: Capan-1 (K-Ras G12V)
IC50: > 10000 nM

Compound: CCn1c(-c2cccnc2[C@H](C)OC)c2c3cc(ccc31)-c1cc(O)cc(c1)C[C@H](NC(=O)[C@H](C(C)C)N(C)C(=O)[C@@H]1OCC[C@@H]1c1cccnc1)C(=O)N1CCC[C@H](N1)C(=O)OCC(C)(C)C2 (atropisomer, axis not shown) [Example A546]
System: Capan-1 (K-Ras G12V)
IC50: 10 to 100 nM

Compound: CCn1c(-c2cccnc2[C@H](C)OC)c2c3cc(ccc31)-c1cc(O)cc(c1)C[C@H](NC(=O)[C@H](C(C)C)N(C)C(=O)[C@H]1CCN(C(=O)[C@@H]3CCCN3C)C1)C(=O)N1CCC[C@H](N1)C(=O)OCC(C)(C)C2 [Example A385]
System: Capan-1 (K-Ras G12V)
IC50: 100 to 1000 nM

Compound: CCn1c(-c2cccnc2[C@H](C)OC)c2c3cc(ccc31)-c1csc(n1)C[C@H](NC(=O)[C@H](C(C)C)N(C)C(=O)N1CC3(CC3)C1)C(=O)N1CCC[C@H](N1)C(=O)OCC(C)(C)C2 (atropisomer, axis not shown) [Example A523]
System: Capan-1 (K-Ras G12V)
IC50: 10 to 100 nM

Compound: CCn1c(-c2cnccc2COC)c2c3cc(ccc31)-c1cc(O)cc(c1)C[C@H](NC(=O)[C@H](C(C)C)N(C)C(=O)[C@H]1CCN(C(=O)C(C)C)C1)C(=O)N1CCC[C@H](N1)C(=O)OCC(C)(C)C2 [Example A29]
System: Capan-1 (K-Ras G12V)
IC50: 1000 to 10000 nM

Compound: CCn1c(-c2cccnc2[C@H](C)OC)c2c3cc(ccc31)-c1csc(n1)C[C@H](NC(=O)[C@H](C(C)C)N(C)C(=O)N1CC(CN(C)C)(OC)C1)C(=O)N1CCC[C@H](N1)C(=O)OCC(C)(C)C2 (atropisomer, axis not shown) [Example A575]
System: Capan-1 (K-Ras G12V)
IC50: 100 to 1000 nM

Compound: CCn1c(-c2cccnc2[C@H](C)OC)c2c3cc(ccc31)-c1cc(O)cc(c1)C[C@H](NC(=O)[C@H](C(C)C)N(C)C(=O)[C@H]1C[C@@H]1O)C(=O)N1CCC[C@H](N1)C(=O)OCC(C)(C)C2 (single isomer, unassigned) [Example A346]
System: Capan-1 (K-Ras G12V)
IC50: 100 to 1000 nM

Compound: CCn1c(-c2cccnc2[C@H](C)OC)c2c3cc(ccc31)-c1csc(n1)C[C@H](NC(=O)[C@H](C(C)C)N(C)C(=O)N1CC([C@@H](C)CO)C1)C(=O)N1CCC[C@H](N1)C(=O)OCC(C)(C)C2 (single isomer, unassigned) [Example A487]
System: Capan-1 (K-Ras G12V)
IC50: 10 to 100 nM

Compound: CCn1c(-c2cc(N3CCN(C)CC3)cnc2[C@H](C)OC)c2c3cc(ccc31)-c1cccc(c1)C[C@H](NC(=O)[C@H](C(C)C)N(C)C(=O)[C@@H]1OCC[C@@H]1c1ccccc1)C(=O)N1CCC[C@H](N1)C(=O)OCC(C)(C)C2 (atropisomer, axis not shown) [Example A562]
System: Capan-1 (K-Ras G12V)
IC50: < 10 nM

Compound: CCn1c(-c2cccnc2[C@H](C)OC)c2c3cc(ccc31)-c1csc(n1)C[C@H](NC(=O)[C@H](C(C)C)N(C)C(=O)N1C[C@@H]3CN(C)C[C@@H]31)C(=O)N1CCC[C@H](N1)C(=O)OCC(C)(C)C2 (atropisomer, axis not shown) [Example A446]
System: Capan-1 (K-Ras G12V)
IC50: > 10000 nM
